Assay: Absorption and emission properties of HBR-binding PYP variants in presence of HBR
Type: physicochemical
Conditions: variant with HBR
readout type: Extinction coefficient

IN: Entry under review: Clone 2: fluorescent HBR-binding PYP variant, SEQ ID NO: 2, residues 94-101 WLIPTLPQ (protein, Functional derivative of SEQ ID NO: 48 - Clone 2) MEHVAFGSEDIENTLAKMDDGQLDGLAFGAIQLDGDGNILQYNAAEGDITGRDPKQVIGKNFFKDVAPGTDSPEFYGKFKEGVASGNLNTMFEWLIPTLPQPTKVKVHMKKALSGDSYWVFVKRV . Reported Extinction coefficient?
OUT: 46,000 M^−1cm^−1
